# assay-explanation: Solubility in Simulated Fluids at 37° C.
# Assay type: physicochemical
# settings: FeSSIF
For each record, write down the corresponding pH at 24 h.
Please respond with just the number, no unit label.

GET /value?item= COc1cc(C)c2[nH]ccc2c1CN1CCC2(C[C@H]1c1ccc(C(=O)O)cc1)CC(F)(F)C2 [Form A] &field=pH at 24 h returns 5.00

GET /value?item= COc1cc(C)c2[nH]ccc2c1CN1CCC2(C[C@H]1c1ccc(C(=O)O)cc1)CC(F)(F)C2.Cc1ccc(S(=O)(=O)O)cc1 [Form C] &field=pH at 24 h returns 4.97

GET /value?item= COc1cc(C)c2[nH]ccc2c1CN1CCC2(C[C@H]1c1ccc(C(=O)O)cc1)CC(F)(F)C2.Cc1ccc(S(=O)(=O)O)cc1 [Form B] &field=pH at 24 h returns 4.87

GET /value?item= COc1cc(C)c2[nH]ccc2c1CN1CCC2(C[C@H]1c1ccc(C(=O)O)cc1)CC(F)(F)C2.Cl [Form D] &field=pH at 24 h returns 4.95
